test: Antitumor activity against human SPC-A1 cells after 72 hrs by MTT assay; type: functional, cell-based; details: Homo sapiens, SPCA1, 72 h; read-out: IC50
readoutName: IC50 (µM)
Numbers only, in µM.

Guide cases for IC50, answers given:
[
  {
    "compound": "O=C1OCC=C1CSC(=S)N1CCOCC1",
    "unit": "µM",
    "IC50": 37.9
  },
  {
    "compound": "O=c1[nH]cc(F)c(=O)[nH]1 [FLUOROURACIL]",
    "unit": "µM",
    "IC50": 26.9
  },
  {
    "compound": "O=C1OCC=C1CSC(=S)Nc1ccccc1",
    "unit": "µM",
    "IC50": 95.3
  },
  {
    "compound": "CC(C)NC(=S)SCC1=CCOC1=O",
    "unit": "µM",
    "IC50": 108
  },
  {
    "compound": "O=C1OCC=C1CSC(=S)N1CCCC1",
    "unit": "µM",
    "IC50": 31.4
  },
  {
    "compound": "CN1CCN(C(=S)SCC2=CCOC2=O)CC1",
    "unit": "µM",
    "IC50": 53.7
  },
  {
    "compound": "O=C1OCC=C1CSC(=S)NC1CC1",
    "unit": "µM",
    "IC50": 57.5
  },
  {
    "compound": "O=C1C=C(CSC(=S)N2CCCC2)CO1",
    "unit": "µM",
    "IC50": 60
  },
  {
    "compound": "O=C1OCC=C1CSC(=S)NCc1ccccc1",
    "unit": "µM",
    "IC50": 20.1
  },
  {
    "compound": "CCN(CC)C(=S)SCC1=CC(=O)OC1",
    "unit": "µM",
    "IC50": 57.1
  }
]

Provide IC50 values for the following items, in order.
1. O=C1CC2(CO1)CSC(=S)N2c1ccccc1 (stereo unspecified)
2. CCN(CC)C(=S)SCC1=CCOC1=O

Reply |
[101, 87]

Provide IC50 values for the following items, in order.
1. CNC(=S)SCC1=CCOC1=O
2. Cc1ccc(NC(=S)SCC2=CCOC2=O)cc1

Reply |
[43.9, 63.8]

* * *

test system: HeLa; test: Antitumor activity against human HeLa cells after 72 hrs by MTT assay; type: functional, cell-based; details: Homo sapiens, HeLa, 72 h; read-out: IC50
Consider the following compounds; for each one, report its log10 IC50.
Form field - Quantity: IC50; Unit: µM; Scale: log10

[
  {
    "compound": "O=C1CC2(CO1)CSC(=S)N2c1ccccc1 (configuration not stated)",
    "log10 IC50": 1.26
  }
]

Provide log10 IC50 values for the following items, in order.
1. CC(C)N(C(=S)SCC1=CC(=O)OC1)C(C)C
2. O=C1OCC=C1CSC(=S)NC1CC1
3. O=C1OCC=C1CSC(=S)N1CCCC1
4. CN(C)C(=S)SCC1=CCOC1=O
5. O=C1OCC=C1CSC(=S)Nc1ccccc1

Reply |
1.45
1.38
0.42
2.06
2.05

Provide log10 IC50 values for the following items, in order.
1. CC(C)NC(=S)SCC1=CCOC1=O
2. CCN(CC)C(=S)SCC1=CCOC1=O
3. CCN(CC)C(=S)SCC1=CC(=O)OC1

Reply |
[2.14, 0.14, 1.32]

Provide log10 IC50 values for the following items, in order.
1. CNC(=S)SCC1=CCOC1=O
2. Cc1ccc(NC(=S)SCC2=CCOC2=O)cc1
3. CN1CCN(C(=S)SCC2=CCOC2=O)CC1
4. O=C1CC2(CO1)CSC(=S)N2C1CC1 (configuration not stated)
5. O=c1[nH]cc(F)c(=O)[nH]1
6. O=C1OCC=C1CSC(=S)NC1CCCCC1
7. O=C1OCC=C1CSC(=S)NCc1ccccc1

Reply |
1.56
0.74
-0.11
1.46
1.62
2.18
1.18

Ask | Entry O=C1OCC=C1CSC(=S)N1CCOCC1 , system HeLa: what log10 IC50 was measured?
Reply | 0.39

* * *

test: Antitumor activity against human EC9706 cells after 72 hrs by MTT assay; assay type: functional, cell-based; conditions: Homo sapiens, EC9706, 72 h; read-out: IC50
Consider the following compounds; for each one, report its IC50.

Guide cases for IC50, answers given:
[
  {
    "compound": "CCN(CC)C(=S)SCC1=CC(=O)OC1",
    "IC50": "> 50 µg/mL"
  },
  {
    "compound": "Cc1ccc(N2C(=S)SCC23COC(=O)C3)cc1 (centres undefined)",
    "IC50": "> 50 µg/mL"
  },
  {
    "compound": "CCNC(=S)SCC1=CCOC1=O",
    "IC50": "44.4 µM"
  },
  {
    "compound": "O=C1OCC=C1CSC(=S)NC1CC1",
    "IC50": "53.6 µM"
  },
  {
    "compound": "CN(C)C(=S)SCC1=CCOC1=O",
    "IC50": "182 µM"
  },
  {
    "compound": "CN1CCN(C(=S)SCC2=CC(=O)OC2)CC1",
    "IC50": "35.8 µM"
  },
  {
    "compound": "CN(Cc1ccccc1)C(=S)SCC1=CC(=O)OC1",
    "IC50": "> 50 µg/mL"
  },
  {
    "compound": "O=C1CC2(CO1)CSC(=S)N2c1ccccc1 (centres undefined)",
    "IC50": "128 µM"
  }
]

Provide IC50 values for the following items, in order.
1. O=C1CC2(CO1)CSC(=S)N2c1ccccc1O (centres undefined)
2. O=C1OCC=C1CSC(=S)NCc1ccccc1
3. CC(C)NC(=S)SCC1=CCOC1=O
4. O=C1OCC=C1CSC(=S)N1CCCC1
5. O=C1CC2(CO1)CSC(=S)N2c1ccc(F)cc1 (centres undefined)

Reply |
["> 50 µg/mL", "34.3 µM", "59.4 µM", "14.4 µM", "> 50 µg/mL"]

Ask | // IC50 lookup, key: O=C1C=C(CSC(=S)N2CCCC2)CO1
Reply | 106 µM

* * *

Consider the following molecules; for each one, report its log10 IC50.
test system: MCF7; experiment: Antitumor activity against human MCF7 cells after 72 hrs by MTT assay; assay type: functional, cell-based; settings: Homo sapiens, MCF7, 72 h; read-out: IC50
Form field - Quantity: IC50; Unit: µM; Scale: log10

Guide cases for log10 IC50, answers given:
[
  {
    "molecule": "Cc1ccc(NC(=S)SCC2=CCOC2=O)cc1",
    "systemUnderTest": "MCF7",
    "log10 IC50": 1.99
  },
  {
    "molecule": "CNC(=S)SCC1=CCOC1=O",
    "systemUnderTest": "MCF7",
    "log10 IC50": 1.92
  },
  {
    "molecule": "O=C1OCC=C1CSC(=S)NC1CCCCC1",
    "systemUnderTest": "MCF7",
    "log10 IC50": 2.26
  }
]

Provide log10 IC50 values for the following items, in order.
1. O=C1OCC=C1CSC(=S)Nc1ccccc1
2. O=c1[nH]cc(F)c(=O)[nH]1 [FLUOROURACIL]

Reply |
1. 1.95
2. 0.88

* * *

tested on: MCF7; assay: Antitumor activity against human MCF7 cells after 72 hrs by MTT assay; type: functional, cell-based; conditions: Homo sapiens, MCF7, 72 h; read-out: IC50
Label criterion met when IC50 is strictly below 100 µM; at or above that, label criterion not met.

Here's what some known entries look like.
[
  {
    "compound": "O=C1OCC=C1CSC(=S)N1CCOCC1",
    "systemUnderTest": "MCF7",
    "classLabel": "criterion met"
  },
  {
    "compound": "O=C1OCC=C1CSC(=S)NCc1ccccc1",
    "systemUnderTest": "MCF7",
    "classLabel": "criterion met"
  },
  {
    "compound": "CCNC(=S)SCC1=CCOC1=O",
    "systemUnderTest": "MCF7",
    "classLabel": "criterion met"
  },
  {
    "compound": "O=C1CC2(CO1)CSC(=S)N2c1ccccc1 (stereo unspecified)",
    "systemUnderTest": "MCF7",
    "classLabel": "criterion not met"
  },
  {
    "compound": "CCN(CC)C(=S)SCC1=CCOC1=O",
    "systemUnderTest": "MCF7",
    "classLabel": "criterion not met"
  },
  {
    "compound": "CN(C)C(=S)SCC1=CC(=O)OC1",
    "systemUnderTest": "MCF7",
    "classLabel": "criterion not met"
  },
  {
    "compound": "O=C1OCC=C1CSC(=S)NC1CC1",
    "systemUnderTest": "MCF7",
    "classLabel": "criterion met"
  },
  {
    "compound": "O=C1C=C(CSC(=S)N2CCCC2)CO1",
    "systemUnderTest": "MCF7",
    "classLabel": "criterion not met"
  }
]

Ask | Determine if CN1CCN(C(=S)SCC2=CCOC2=O)CC1 shows IC50 strictly lower than 100 µM.
Reply | criterion met

Ask | Determine if CC(C)NC(=S)SCC1=CCOC1=O shows IC50 strictly lower than 100 µM.
Reply | criterion not met

Ask | Determine if O=C1OCC=C1CSC(=S)N1CCCC1 shows IC50 strictly lower than 100 µM.
Reply | criterion met
